Each item that follows carries a reported TGI.
- Test system: NCI-H460 lung
- Assay: NCI tumour cell line growth inhibition, 48 h

Smiles String	TGI
CN(C)c1ccc(/C=N/NC(=O)c2cccc3ccccc23)c(Cl)c1	> 100 µM
N=C(N)SCc1ccc(N=C=S)cc1	30.4 µM
O=C(NC(=O)c1cc2cc(Br)cc(Br)c2oc1=O)Oc1ccccc1	> 100 µM
O=C(Nc1cccc(-n2cc(-c3ccncc3)c(-c3ccc(O)c(Cl)c3)n2)c1)c1ccc(Cl)c(Cl)c1	> 100 µM
Cc1cc2c(cc1C)[n+](Cc1ccc3ccccc3n1)cn2Cc1ccc2ccccc2n1	2.21 µM
CCOC(=O)c1nc2cc(C(F)(F)F)ccc2[n+]([O-])c1C	> 100 µM
CCOC(=O)C1=C(C)NC(C)=C(C(=O)OCC)C1c1ccc(C)cc1	48 µM
CCOC(=O)c1cn2c(ccc3sc4ccccc4c(=O)c32)n1	> 100 µM
COc1cc(Nc2nc3ccccc3nc2C(C)C)cc(OC)c1OC	> 100 µM

###

- Test system: HOP-62 NSCLC
- Assay: NCI tumour cell line growth inhibition, 48 h
Each item that follows carries a reported GI50.

Smiles String	GI50
CN1CCN(c2ccc(C(=O)Nc3cccc(C#Cc4cccc5[nH]nc(N)c45)c3)cc2C(F)(F)F)CC1	792 nM
Cc1cc(S(N)(=O)=O)c(S/C(=N\Nc2ccc([N+](=O)[O-])cc2)c2ccc3ccccc3c2)cc1Cl	22800 nM
COc1ccc(-c2nnc(Nc3nc(O)c(C4=c5cc(F)ccc5=NC4=O)s3)o2)cc1	18200 nM
Cc1cc2c(cc1C)[n+](Cc1ccc3ccccc3n1)cn2Cc1ccc2ccccc2n1	1270 nM
CC1(C)N=C(N)N=C(N)N1c1ccc(Cl)c(Cl)c1	533 nM

###

- Tested on: SW-620 colon
- Assay: NCI tumour cell line growth inhibition, 48 h
Where a SMILES comes first, the peptide text is derived from it. The star is where a group is joined. Cbz = O=C(OCc1ccccc1)*
Property Name: TGI

Molecule	Property Name	Measurement
CC(C)(O)CCc1ccc(O)c2c(=O)c3c(O)c4c(cc3oc12)O[C@H]1OC=C[C@@]41O	TGI	27.8 µM
COc1ccc2[nH]c(O)c(/C=c3/ccc4c(c3)N=C(c3ccc(F)cc3)N=4)c2c1	TGI	> 100 µM
COC[C@@H](N=CN1CCc2cc(OC)c(OC)cc2C1)C(C)(C)C	TGI	> 100 µM
CC(C)[C@](O)(C(=O)OCC1=CCN2CC[C@@H](O)[C@@H]12)[C@H](C)O	TGI	> 237 µM
C/C=C1\CCC2c3[nH]c4ccccc4c3CCN2C1 (stereo unspecified)	TGI	> 100 µM
CC(=O)OC1[C@H](n2ccnc2)C[C@H]2[C@@H]3CC=C4CC(N5CCCC5)CC[C@]4(C)[C@H]3CC[C@]12C (stereo partly specified)	TGI	> 100 µM
Cc1nn(-c2ccccc2)c2nc3ccc(Cl)cc3c(-c3ccccc3)c12	TGI	> 100 µM
NC(=S)N/N=C1\CCCCC1C(O)(C(F)(F)Cl)C(F)(F)Cl (stereo unspecified)	TGI	> 10 µM
Cc1ccc(C)c(COCCOCn2c(=O)[nH]c(=O)c3cc(Br)ccc32)c1	TGI	> 100 µM
COc1cc(C2C3=C(COC3=O)Nc3cc4c(cc32)OCO4)cc2c1OCO2 (stereo unspecified)	TGI	> 100 µM
CN(C)/C=C/c1c2c(nc3ccccc13)C(=O)c1ccccc1C2=O	TGI	5.04 µM
CCN(Cc1cccc(F)c1F)c1ccc(CO)c(Cl)c1	TGI	18.1 µM
C/C(=C1\C(=O)C(c2ccccc2)N(c2ccccc2)C1=O)c1ccc(Cl)cc1 (stereo unspecified)	TGI	72.3 µM
O=C(c1ccccc1)c1nn(-c2ccccc2)c2nc3nc(-c4ccccc4)cc(=O)n3nc12	TGI	> 100 µM
Brc1ccc(C2SCc3nc4ccccc4n32)cc1 (stereo unspecified)	TGI	29.2 µM
COC1=CC(=O)NCCN1	TGI	50.9 µM
CCOC(=O)CNC(=O)C(C)NC(=O)C(NC(=O)OCc1ccccc1)C(C)C (stereo not drawn) (Cbz-Val-Ala-Gly-OEt; configuration not given here)	TGI	> 100 µM
Cc1cc2c(=O)[nH]c(N)nc2nc1C	TGI	> 100 µM
COc1ccc(N(C(=O)NCCO)c2ccccc2)cc1	TGI	> 100 µM
CNC(=O)c1cc2c(Oc3ccc(NC(=S)NC(=O)Cc4ccccc4)cc3F)ccnc2cc1OC	TGI	> 100 µM
Cc1cc(O)cc(C)c1/C=C/c1cncc(C(=O)OC(C)(C)C)c1	TGI	> 25 µM
CCCCCSC1C2C(=O)C(Br)=CC13CCNc1c(O)c4c5c(c13)=[N+]2CCC=5C=N4 (stereo unspecified)	TGI	1.55 µM
Cc1nc2ccccc2n1Cc1nnc2n1N=C(c1ccccc1)CS2	TGI	> 100 µM
COc1cc2c(cc1O)C(c1cc(O)c(O)c(OC)c1)C(O)(C(=O)O)C(CO)C2O (stereo unspecified)	TGI	76.5 µM
O=S(=O)(NCCO)c1cc[c]([Sb](=[O])([OH])[OH])cc1	TGI	> 100 µM
Nc1c2c(nc3ccccc13)CCCc1ccccc1-2	TGI	26.6 µM
